Target: T1, Human GDF15 Fc (human) (UniProt Q99988)
T1 sequence (chain, biotinylated (EZ-Link Sulfo-NHS-Biotinylation Kit) where printed as biotinylated): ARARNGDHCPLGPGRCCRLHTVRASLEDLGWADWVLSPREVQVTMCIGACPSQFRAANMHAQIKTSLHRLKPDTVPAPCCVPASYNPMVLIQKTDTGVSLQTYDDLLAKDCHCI
Experiment: SPR Biacore, Fab monovalent
We begin with a simple list: items and their reported kon.
Express the result in M⁻¹ s⁻¹ but write the number alone.

Clone J Fab (Fab, V domains shown) VH: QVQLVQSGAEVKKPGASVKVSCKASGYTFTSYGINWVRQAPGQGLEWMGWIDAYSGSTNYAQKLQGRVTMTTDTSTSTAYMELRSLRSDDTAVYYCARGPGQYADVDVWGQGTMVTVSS VL: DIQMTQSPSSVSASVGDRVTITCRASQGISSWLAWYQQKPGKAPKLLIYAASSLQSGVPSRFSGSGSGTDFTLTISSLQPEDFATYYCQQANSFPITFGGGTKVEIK = 4.57e+06

# query: kon of entry Clone K Fab (Fab, V domains shown) VH: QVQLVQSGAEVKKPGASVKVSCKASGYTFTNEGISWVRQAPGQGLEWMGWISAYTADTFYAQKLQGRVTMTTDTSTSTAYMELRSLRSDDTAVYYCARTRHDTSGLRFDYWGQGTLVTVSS VL: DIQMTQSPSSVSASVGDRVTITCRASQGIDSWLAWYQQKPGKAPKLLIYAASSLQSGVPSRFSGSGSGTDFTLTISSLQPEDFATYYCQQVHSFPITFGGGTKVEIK
4.87e+06

# query: kon of entry Clone T Fab (Fab, V domains shown) VH: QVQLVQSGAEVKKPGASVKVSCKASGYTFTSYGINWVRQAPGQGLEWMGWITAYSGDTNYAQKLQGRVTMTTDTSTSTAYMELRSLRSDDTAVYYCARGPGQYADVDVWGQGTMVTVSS VL: DIQMTQSPSSVSASVGDRVTITCRASQGISSWLAWYQQKPGKAPKLLIYAASSLQSGVPSRFSGSGSGTDFTLTISSLQPEDFATYYCQQASQFPITFGGGTKVEIK
1.1e+06
